Data provenance: the supplement of paper PMC7877785

Assay: self-splicing fitness, log relative to wild type (ln ratio); higher = more splicing; Tetrahymena group I intron in knt gene, E. coli kanamycin selection, DiMSum; sequences stand for … in CUCUCU…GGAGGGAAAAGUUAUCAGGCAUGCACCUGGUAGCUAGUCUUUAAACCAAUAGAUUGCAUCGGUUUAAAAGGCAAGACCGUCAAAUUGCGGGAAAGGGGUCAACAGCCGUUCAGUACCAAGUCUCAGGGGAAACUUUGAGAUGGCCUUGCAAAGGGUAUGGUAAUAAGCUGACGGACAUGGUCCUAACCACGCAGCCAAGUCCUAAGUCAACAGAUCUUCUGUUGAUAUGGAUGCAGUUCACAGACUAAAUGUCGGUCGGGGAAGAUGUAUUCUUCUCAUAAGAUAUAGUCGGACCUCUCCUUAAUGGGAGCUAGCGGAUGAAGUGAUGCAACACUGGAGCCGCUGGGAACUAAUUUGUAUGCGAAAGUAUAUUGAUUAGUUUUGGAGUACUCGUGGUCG;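 further: selection with 25 µg/mL kanamycin versus none on LB agar overnight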
Conditions: 30 °C
READOUT KIND: self-splicing fitness (ln)

Prompt: Which measured self-splicing fitness (ln) value corresponds to AAUGAGCAAUAUUACGUAGC ?
Response: -2.91

Prompt: Same for CCGCAGCAAUAUUACGAGAC
Response: -2.24

Prompt: Same for AUUUAGCAAUAUUACGAGCG
Response: -2.66

Prompt: Same for GCAUAGCAAUAUUACGAGGA
Response: -2.47

Prompt: Same for CUGCAGCAAUAUUACGCGCG
Response: -1.6

Prompt: Same for CUCGAGCAAUAUUACGAUAU
Response: -4.2

Prompt: Same for UGGCAGCAAUAUUACGAUCG
Response: 0.335

Prompt: Same for UGUUAGCAAUAUUACGAUUC
Response: -2.39

Prompt: Same for ACAUAGCAAUAUUACGCUAA
Response: -2.26

Prompt: Same for CCCCAGCAAUAUUACGGCUG
Response: -4.06

Prompt: Same for GAGUAGCAAUAUUACGCGAU
Response: -2.26

Prompt: Same for UAACAGCAAUAUUACGGUAU
Response: -3.01

Prompt: Same for UGAAAGCAAUAUUACGGAUU
Response: -1.99

Prompt: Same for AGUUAGCAAUAUUACGACGA
Response: -0.101

Prompt: Same for CCAAAGCAAUAUUACGGCGC
Response: -3.65

Prompt: Same for AGCCAGCAAUAUUACGCAUA
Response: -2.21
